assay: Cycloheximide Counterscreen for Small Molecule Inhibitors of Shiga Toxin; conditions: cell reporter, cycloheximide protein synthesis inhibition counterscreen; active compounds read high; further: read at 38.3 µM for the half of the compounds with a filed dose
Screen size: about 300,000 compounds; about 37,000 (12%) were called active. Many of the other results were omitted from the sample, so actives are more common in it than they were.
In this section, each of the compounds is paired with its reported max response.
Expressed in %, but write only the number.

Record excerpt, results attached:
| smiles repr | max response (%) |
| --- | --- |
| COc1cc(CN2CCCN(C)CC2)c([N+](=O)[O-])cc1OC | -2.2 |
| O=C(NCCNc1ccc([N+](=O)[O-])cc1)c1cccc2c(Br)cccc12 | -5.64 |
| O=C(C1CCN(S(=O)(=O)c2ccc(Br)s2)CC1)N1CCN(c2ccccc2)CC1 | -2.23 |
| CCN(CC)S(=O)(=O)c1ccc(N2CCN(C)CC2)c(NC(=O)Nc2ccccc2F)c1 | -3.4 |

Problem: Quick one: max response for `C=CCNC(=O)c1ccccc1NC(=O)c1ccc(Cl)c(S(=O)(=O)Nc2cccc(C)c2C)c1` ?
Result: 1.27

Problem: Could you do the same for `c1ccc2c(-c3nn4nnnc4c4ccccc34)cccc2c1` , please?
Result: 8.28

###

assay: Cycloheximide Counterscreen for Small Molecule Inhibitors of Shiga Toxin; details: cell reporter, cycloheximide protein synthesis inhibition counterscreen; active compounds read high; further: read at 38.3 µM for the half of the compounds with a filed dose
Screen size: about 300,000 compounds; about 37,000 (12%) were called active. Only a selection was taken, and actives are over-represented in it overall.
Label 0 (no) if max response falls below 10%; label 1 (yes) in every other case.

| molecule | class |
| --- | --- |
| C=CCSc1nnc(N2C(=O)C(O)=C(C(=O)c3ccco3)C2c2ccc(F)cc2)s1 (centres undefined) | 0 (no) |
| O=C1CCC(=O)N1c1ccc(NCCc2ccccc2F)c([N+](=O)[O-])c1 | 1 (yes) |
| COc1cc2c(cc1NC(=O)COC(=O)/C=C/c1ccccc1)oc1ccccc12 | 0 (no) |
| Cc1ccc2c(C)c(C(=O)N(C)Cc3ccncn3)oc2c1C | 0 (no) |
| COc1cc(SC)ccc1C(=O)NCCOc1ccccc1Cl | 1 (yes) |

Problem: Check if max response >= 10% (inclusive). Item: `CC(C)c1ccc(S(=O)(=O)N2CCC3(CC2)OCCO3)cc1`
Result: 0 (no)

Problem: Query `Cc1occc1C(=O)Nc1cccc(Cn2cccn2)c1` next
Result: 1 (yes)

Problem: Again, but for CC(C)(C)c1ccc(CCC2OCC(CN3CCOCC3)O2)cc1 (centres undefined)
Result: 1 (yes)

###

assay: Cycloheximide Counterscreen for Small Molecule Inhibitors of Shiga Toxin; details: cell reporter, cycloheximide protein synthesis inhibition counterscreen; active compounds read high; further: read at 38.3 µM for the half of the compounds with a filed dose
Out of some 300,000 compounds screened, about 37,000 (12%) were called active. This is one part of a sample in which actives are shown more often than they occur.
assay metric: max response (%)
Please respond with the number in % and leave the unit unwritten.

| molecule | units text | max response |
| --- | --- | --- |
| O=C(O)/C=C/C(=O)Nc1ccc(F)cc1F | % | 7.97 |

Problem: Could you share which max response value was measured for `COc1ccc(CCNC(=O)CCc2cn(C)c3ccccc23)c(OC)c1` ?
Result: 0.538

Problem: Subsequent entry: COCCn1c(SCC(=O)Nc2cc(Cl)ccc2OC)nc2c(c1=O)SC(C)C2 (stereo unspecified)
Result: -1.62

Problem: Would you kindly repeat that for `Cc1n[nH]c(=S)n1/N=C/c1ccc(Br)o1` ?
Result: -1.34

Problem: // repeat for `Cc1cccc2sc(N(CCCN(C)C)C(=O)CCS(=O)(=O)c3ccccc3)nc12` and report
Result: 8.46

Problem: Please answer likewise for `COc1ccccc1NC(=O)/C=C/C(=O)O`
Result: -1.17
